Cited source for all entries: the supplement of paper PMC12636428

system: Saccharomyces cerevisiae; assay: transcriptional activation domain activity (GFP:mCherry ratio, weighted mean of sorted bins, harmonized to initial dataset scale) (arbitrary fluorescence ratio units); higher = stronger transcriptional activation; settings: beta-estradiol 1 µM; induction time 4 h
readout: transcriptional activation domain activity

| primary_sequence | observed_measurement |
| --- | --- |
| FCRALIHSQGEGPKSIYESSVISLTEAARAIINISRRSFTLHQTLTCRMWYFL | 49900 |

# input Could you tell me which transcriptional activation domain activity is on file for ADRLIRILRILMFNWKFWNTGCFATYDPNSNLVRLEIPCSRDLLGTKPGTYYY ?
# output 50200

# input Could you tell me which transcriptional activation domain activity is on file for RLKLFIMVVFCLGTIHEYALIGMYWSILISCRRSMSLECTTKLPWQMVLGVFM ?
# output 49800

* * *

test system: Saccharomyces cerevisiae; experiment: transcriptional activation domain activity (GFP:mCherry ratio, weighted mean of sorted bins, harmonized to initial dataset scale) (arbitrary fluorescence ratio units); higher = stronger transcriptional activation; conditions: beta-estradiol 1 µM; induction time 4 h
Readings of transcriptional activation domain activity for the listed sequences
Please respond with just the number, no unit label.

| primary_sequence | observed_measurement |
| --- | --- |
| FLLAIRVSNMDLLMIGIMLTLFVRNVIVSTDYIRRGRVRYKALFYVLLCKYYR | 49600 |
| MASLRNHAEQLNAAVYRNYKKDRKVGEGAYAVVYLGTQLSTKKVVAIKKIKVG | 49800 |
| MRLHCFFLFVFFFSLFSFLLATLCHSPLPLPFVHVSFFPPSLLPLPIFALDPF | 33100 |

# input Any idea what transcriptional activation domain activity came out for ILALSWGGGLYPWASYHVLVPLILGFCILVVFALYEIYMPLKYPLIPMSLFLN on Saccharomyces cerevisiae?
# output 40400

# input Any idea what transcriptional activation domain activity came out for MFKSVFCLFSVLSFLLFHACFIYHSFFSFLFLLMMKLLLWLCATFATKWLFFC on Saccharomyces cerevisiae?
# output 69500

* * *

tested on: Saccharomyces cerevisiae; assay: transcriptional activation domain activity (GFP:mCherry ratio, weighted mean of sorted bins, harmonized to initial dataset scale) (arbitrary fluorescence ratio units); higher = stronger transcriptional activation; details: beta-estradiol 1 µM; induction time 4 h
readout: transcriptional activation domain activity
Please respond with just the number, no unit label.

Example sequences with recorded transcriptional activation domain activity:
| primary_sequence | observed_measurement |
| --- | --- |
| ADASKWWLLGDSFEADVLTFVSLFQFVNSALIFNYGYIFRQAWYRNYLLVSVW | 56700 |
| GDQGAGRRDRRRRLGHRGGGEGRGREEGEEGRRDGEGRHRGEGGREEGEEEDR | 14300 |
| GCEPKNQRIFYFHVLILQRSLMARLERHEEGLSTKEWRLVLGDHYWISHWKKV | 51400 |

# input Could you tell me which transcriptional activation domain activity is on file for HGPMFHFSISNWVEGAKLAGHGNPTGHNPELILNNFRTPLGLLTAHLFKTMFP ?
# output 52200

# input Could you tell me which transcriptional activation domain activity is on file for LLTEHFLLRVFAVFTAYIVELWMLKVAYLGYYFQLRQYLSEKSRMIYIGTCVY ?
# output 63300

# input Could you tell me which transcriptional activation domain activity is on file for RIFGLQSPQLVYVESMARVRKLSLSGKILRLLVDRFFVQWEALADGKTGSRWW ?
# output 61100

# input Could you tell me which transcriptional activation domain activity is on file for KDATGDDAARARGGDKGGEREKAGGKGGRRGPKEKEKGKQKAKESKGAAGFAE ?
# output 55600

# input Could you tell me which transcriptional activation domain activity is on file for KWIIPTPFASHAFNPCDGFLQSLPYHIYVYMIPMHKYLYLLMFVLVNFWTVMI ?
# output 49700

# input Could you tell me which transcriptional activation domain activity is on file for HNILHLFSICVFRYHMLYYDEVRYIWKRWRRRSTYWFFLNRYFNFFGNGAITV ?
# output 64600

# input Could you tell me which transcriptional activation domain activity is on file for TLRVDSLTGMIRIIRHVDFDGLPRPSGSGVITPFGIVFGGVCRGYWLWLWKVD ?
# output 35800

* * *

tested on: Saccharomyces cerevisiae; assay: transcriptional activation domain activity (GFP:mCherry ratio, weighted mean of sorted bins, harmonized to initial dataset scale) (arbitrary fluorescence ratio units); higher = stronger transcriptional activation; settings: beta-estradiol 1 µM; induction time 4 h
readout: transcriptional activation domain activity
Please respond with just the number, no unit label.

# input Could you tell me which transcriptional activation domain activity is on file for MVILLLFFVFRVNFVIVLAVSIPRQASFHVIHRFTYLLRRLQDMLNTTHRYAA ?
# output 40500

# input Could you tell me which transcriptional activation domain activity is on file for RFLFQWDLELALSLCLSHTLGIISLPYKSIFISILWLIQSSWQLLFFLFWQPL ?
# output 70400

# input Could you tell me which transcriptional activation domain activity is on file for VVLASSPSSQTTSSTSVVLIFGSDDKRVKEVGEGLKAKLDMRGGGKGTRWSGK ?
# output 14200

# input Could you tell me which transcriptional activation domain activity is on file for TNAENSSQPSLAQWAKGREGVLMISSDVISNVQISIGKSRLASLLISLCLQRM ?
# output 47300

# input Could you tell me which transcriptional activation domain activity is on file for MARLHIGQLCSRSFFYALLVLSTWSSKLVYLWPHLTSSLPPLLIVLYIPTFLL ?
# output 72900

# input Could you tell me which transcriptional activation domain activity is on file for KGFDSQCIEEWDPILFSAAEIWPTKGKPIALVEMDPIDFDFDVDNWDYVTRHL ?
# output 174000

# input Could you tell me which transcriptional activation domain activity is on file for DTIYIFHALLVVFWVSLMQEPAFPYKLLIPILYITILLIPFTSQVFLPAVPVL ?
# output 49400

# input Could you tell me which transcriptional activation domain activity is on file for PKADGDAEPKPKAPRGTKRKAAEETNGAEEGGEAPAAKKAKPASKAKPASKAA ?
# output 16400

# input Could you tell me which transcriptional activation domain activity is on file for MADAITESTAKLQLDEETGEMVSKGELKKRLAKRAKKAAQAKAKAEAPAPLAT ?
# output 36300

* * *

test system: Saccharomyces cerevisiae; assay: transcriptional activation domain activity (GFP:mCherry ratio, weighted mean of sorted bins, harmonized to initial dataset scale) (arbitrary fluorescence ratio units); higher = stronger transcriptional activation; details: beta-estradiol 1 µM; induction time 4 h
Records here are stratified by transcriptional activation domain activity; strata: LOW (below 30000), MEDIUM (30000 to below 50000), HIGH (50000 or more)

# count of solved cases: 5
| primary_sequence | class_assignment |
| --- | --- |
| NVSPGTTDAGPWMRAIEELAGTGVYEHLGYGWKGWLFWLRDRSFCNMLMTGIW | HIGH |
| VNSHGYKHISNLDELDDLLSLTYSDNNLLSASNNSDFNNSNNGIINTADTQNS | HIGH |
| SSSSASSSSASARGRKTQAARSTKKRKRRDAVSSANKDEDNDSDASNDEDEDE | LOW |
| KQYCVRPNSGRIEAGKEVEVQVLLQAMKEDPPADAKCRDKFLVQSVAISADKE | LOW |
| QITNRILPSPAAVRYSGLIPLLVLVLVLPLFFLFFLFFFFFLFLFLFFLVLLY | HIGH |

# input // return the class label for RLLIVFAWMCRLGCWIEMDHEARLVLLKFLATFKANSNNVISYKLDQYYLTGL
# output HIGH

# input // return the class label for QLAIELSAFADDSFIFPDEDKPSNNNNNSNNGNDDHSNHDVLHEDPSTNNRQR
# output LOW

# input // return the class label for MIPGVLLECSFVEFLSFLLDLLLLTLLWIMRLMMMLLLPLFLLLLLIFVYCCV
# output MEDIUM

# input // return the class label for AAERRQQGHRAKENEKRRQEEARRGRKERGAGGGKAKAGRKPAGQPRRRRSRE
# output MEDIUM

# input // return the class label for SFLNDAMSEIHTFGDFNGELDSTFLEFSGTEIKEPNNFITENTNAIETAAASM
# output HIGH

# input // return the class label for IRNHSLPTNLQVKDKIEDLNEIKFFNDFEKLEFFNKYAKVNTNNDVNENNDLW
# output MEDIUM

# input // return the class label for DTPFALHTLLIMHGHILLCENAKVSLDSSDTLNIFVPLVTVLINRLTNRKEYS
# output MEDIUM

* * *

system: Saccharomyces cerevisiae; assay: transcriptional activation domain activity (GFP:mCherry ratio, weighted mean of sorted bins, harmonized to initial dataset scale) (arbitrary fluorescence ratio units); higher = stronger transcriptional activation; details: beta-estradiol 1 µM; induction time 4 h
Readings of transcriptional activation domain activity for the listed sequences
Please respond with just the number, no unit label.

Example sequences with recorded transcriptional activation domain activity:
| primary_sequence | observed_measurement |
| --- | --- |
| KAPTAPRKAGIAAKAGEKEAAAGAAAKVAEVTEAAARRGRGRPKKAQEELTAS | 50500 |
| GAKGKGAEKGKSKQAEQGDGEDGGSEAEGGKRKRAARSKAKTKGKAGGAADGG | 23300 |
| MVLLSKIVWVICGVTLVSTDFDHAQRRLRGSLLTSLTLYLLIVMCSRWSLVES | 72400 |
| MLFIPFCVLFFVWLWGLINYGAFVDPCFLSFYVLLSTLLQLPSSSFLSFFALF | 54400 |
| FFEVGGVPRFQETVIAGGDNSVGRALSSPTVIYSGKHDGIALTIIRLLRPIWL | 53400 |
| TTKPKEASKPKEDPKPRSKSPVKKEETKVEKPKEDPPKAEAKSIPATTAAAAV | 59300 |
| IKITKEHKWIIVFKIRYKLFKYLVILFKLTNGASLFSYFINSLLFYNLLNNFY | 54600 |
| QESVYIEVISYIGLIFDWFWYYILMNLSVFIWLACMYYTIFLYGFLEAYFPEK | 33000 |

# input Could you tell me which transcriptional activation domain activity is on file for MSTVPRLRLHLHLHLHLHLRLHLHLQLSTPKPTEDGAEHGTERGTERGTERGT ?
# output 49700

# input Could you tell me which transcriptional activation domain activity is on file for VDLTQLSHLMLKIWLELILIVVYKHNILERTYENMVISCMKQVIDLLARDISE ?
# output 51900

# input Could you tell me which transcriptional activation domain activity is on file for HTVGGKPSELMRSSEEDEDKICGAIGCDDTESAPSNACGRCKRVYYCSRACQT ?
# output 42800
